Attribution: paper PMC10569036

For each of the molecules below, state its log partition n-undecane / HPLC water, unbuffered, traces of methanol / DMSO.
METHOD_NOTES: shake flask on a mixture of 185; loss from the water phase only; LC-QTOF peak areas
SETUP_CONDITIONS: room
One number for each entry, in log10.

CC(C)N1C(=O)c2ccccc2NS1(=O)=O    -1.756
Nc1cc2c3c(c1)C(c1ccccc1)=N[C@@H](NC(=O)c1cccnc1)C(=O)N3CC2    -1.615

Look at each molecule and report its log partition n-undecane / HPLC water, unbuffered, traces of methanol / DMSO.
1. CCCCOC(=O)C(C)Oc1ccc(Oc2ccc(C(F)(F)F)cn2)cc1 (stereo not drawn)
2. CO/N=C(/C1=NOCCO1)c1ccccc1Oc1ncnc(Oc2ccccc2Cl)c1F

Outgoing:
[2.336, 1.557]

Please go through the list and note log partition n-undecane / HPLC water, unbuffered, traces of methanol / DMSO for each molecule.
1. CN/C(=N/[N+](=O)[O-])NCC1CCOC1 (stereo not drawn)
2. CC(C)C1(C)N=C(c2nc3ccccc3cc2C(=O)O)NC1=O (stereo not drawn)
3. c1ccc2[nH]c(-c3cscn3)nc2c1
4. OCCN(CCO)c1ccccc1
5. O=C(c1ccccc1)c1ccc(O)cc1O
6. O=S(=O)(O)C(F)(F)F
7. CCC(C)(CC)c1cc(NC(=O)c2c(OC)cccc2OC)on1

Outgoing:
[-1.902, -1.153, -1.324, -1.783, -0.7905, -0.955, 1.012]

Incoming: Which log partition n-undecane / HPLC water, unbuffered, traces of methanol / DMSO is listed for C[C@H](CCC(=O)O)[C@H]1CC[C@H]2[C@@H]3CC[C@@H]4C[C@H](O)CC[C@]4(C)[C@H]3CC[C@]12C ?
Outgoing: -0.8435

====

METHOD_NOTES: shake flask on a mixture of 185; loss from the water phase only; LC-Orbitrap peak areas
SETUP_CONDITIONS: room
OBSERVATION_TYPE: log partition toluene / HPLC water, unbuffered, traces of methanol / DMSO (log10)
Give bare numbers, in log10.

Answered examples (3):
O=C(c1ccccc1)c1ccc(O)cc1O    0.1696
Oc1c(Cl)ccc(Cl)c1Cl    -0.4023
CC(=O)c1ccc2ccccc2c1    -0.371

Give measured log partition toluene / HPLC water, unbuffered, traces of methanol / DMSO for every item shown.
1. Cc1cc(O)cc(C)c1Cl
2. Cc1cc2c3c(c1)C(c1ccccc1)=N[C@@H](NC(=O)c1ccncc1)C(=O)N3CC2

Outgoing:
1. 0.8203
2. 1.875

Batch: log partition toluene / HPLC water, unbuffered, traces of methanol / DMSO for all items listed.
1. CCOc1ccc2c(c1)C(C)CC(C)(C)N2 (centres unmarked)
2. CC(C)Nc1nc(N)nc(Cl)n1
3. Cc1oncc1C(=O)Nc1ccc(C(F)(F)F)cc1

Outgoing:
1: -0.1412; 2: 0.5402; 3: 0.7892

====

METHOD_NOTES: shake flask on a mixture of 185; loss from the water phase only; LC-QTOF peak areas
SETUP_CONDITIONS: room
Please note: log partition dichloromethane / HPLC water, unbuffered, traces of methanol / DMSO exactly at 2 log10 is rule not met. Only values below 2 log10 get rule met.

Some entries whose results are on file:
Cc1cc(C)nc(NS(=O)(=O)c2ccc(N)cc2)n1    rule met
NC(=O)Nc1ccc(Cl)cc1    rule met
CC(C)N1C(=O)c2ccccc2NS1(=O)=O    rule met
Cn1cnc([N+](=O)[O-])c1Sc1ncnc2nc[nH]c12    rule met
CC(C)C1(C)N=C(c2nc3ccccc3cc2C(=O)O)NC1=O (stereo not drawn)    rule met

Incoming: Does COC(=O)C(C)N(C(=O)c1ccco1)c1c(C)cccc1C (stereo not drawn) have log partition dichloromethane / HPLC water, unbuffered, traces of methanol / DMSO strictly under 2 log10?
Outgoing: rule not met

Incoming: Is 2 log10 strictly greater than the compound's reported log partition dichloromethane / HPLC water, unbuffered, traces of methanol / DMSO? compound: CCNC(=O)C1CC(C)CCC1C(C)C (stereo not drawn)
Outgoing: rule met

Incoming: Item Cc1oncc1C(=O)Nc1ccc(C(F)(F)F)cc1 : log partition dichloromethane / HPLC water, unbuffered, traces of methanol / DMSO beneath 2 log10, strictly?
Outgoing: rule not met

Incoming: Is log partition dichloromethane / HPLC water, unbuffered, traces of methanol / DMSO of CN/C(=N/[N+](=O)[O-])NCC1CCOC1 (stereo not drawn) strictly below 2 log10?
Outgoing: rule met

Incoming: Find out if reported log partition dichloromethane / HPLC water, unbuffered, traces of methanol / DMSO for C[C@H](CCC(=O)O)[C@H]1CC[C@H]2[C@@H]3CC[C@@H]4C[C@H](O)CC[C@]4(C)[C@H]3CC[C@]12C is less than 2 log10
Outgoing: rule met

Incoming: hey, is log partition dichloromethane / HPLC water, unbuffered, traces of methanol / DMSO for O=S(=O)(O)C(F)(F)F lower than 2 log10 or not?
Outgoing: rule met

Incoming: Confirm or reject: log partition dichloromethane / HPLC water, unbuffered, traces of methanol / DMSO of CCCCOC(=O)C(C)Oc1ccc(Oc2ccc(C(F)(F)F)cn2)cc1 (stereo not drawn) lies strictly below 2 log10
Outgoing: rule not met

Incoming: Input CCCOC(=O)c1ccc(C(=O)OCCC)nc1 ; condition: log partition dichloromethane / HPLC water, unbuffered, traces of methanol / DMSO strictly below 2 log10. Does it hold?
Outgoing: rule not met

Incoming: Determine if OCCN(CCO)c1ccccc1 shows log partition dichloromethane / HPLC water, unbuffered, traces of methanol / DMSO strictly lower than 2 log10.
Outgoing: rule met

Incoming: Bench note: check whether Cc1ccc([N+](=O)[O-])cc1S(=O)(=O)O shows log partition dichloromethane / HPLC water, unbuffered, traces of methanol / DMSO below 2 log10
Outgoing: rule not met

Incoming: Check if log partition dichloromethane / HPLC water, unbuffered, traces of methanol / DMSO falls below 2 log10 for CCc1ccc(C(=O)NN(C(=O)c2cc(C)cc(C)c2)C(C)(C)C)cc1 .
Outgoing: rule met

Incoming: Record CCC(C)(CC)c1cc(NC(=O)c2c(OC)cccc2OC)on1 : is its log partition dichloromethane / HPLC water, unbuffered, traces of methanol / DMSO strictly below 2 log10?
Outgoing: rule met

Incoming: Is log partition dichloromethane / HPLC water, unbuffered, traces of methanol / DMSO of c1ccc2[nH]c(-c3cscn3)nc2c1 strictly below 2 log10?
Outgoing: rule met

Incoming: Criterion: log partition dichloromethane / HPLC water, unbuffered, traces of methanol / DMSO strictly below 2 log10. Is it met by C#CC(C)(C)NC(=O)c1cc(Cl)cc(Cl)c1 ?
Outgoing: rule not met
